# Test system: Mycobacterium tuberculosis
# assay-notes: Antimycobacterial activity against Mycobacterium tuberculosis H37Rv assessed as reduction in microbial growth incubated for 6 days by broth dilution method
# Type: functional
# reported-conditions: 144 h, time 6 day
measured-attribute: MIC (µg/mL)
Please give a number only; it is taken to be in µg/mL.

Quick one: MIC for `Cc1cc(=O)oc2cc(OCc3cn(Cc4ccc(Oc5ccccc5)c(O)c4)nn3)ccc12` ?
0.6

Return reported MIC; argument: `O=[N+]([O-])c1ccc(NCc2cn(Cc3ccc(Oc4ccccc4)c(O)c3)nn2)c2nonc12`
4.6

Given `O=c1ccc2ccc(OCc3cn(Cc4ccc(Oc5ccccc5O)cc4)nn3)cc2o1` , state its recorded MIC.
2.2

// lookup MIC for `O=C(O)c1cn(C2CC2)c2cc(N3CCNCC3)c(F)cc2c1=O`
0.8

Could you tell me which MIC is on file for `CCN(CC)c1ccc2c(OCc3cn(Cc4ccc(Oc5ccccc5)c(O)c4)nn3)cc(=O)oc2c1` ?
0.7

Can you share its MIC? I mean this compound: `O=c1cc(OCc2cn(Cc3ccc(Oc4ccccc4)c(O)c3)nn2)c2ccccc2o1`
2.2

Look up MIC for this compound: `CCCCCCc1ccc(Oc2ccc(Cn3cc(CNc4ccc([N+](=O)[O-])c5nonc45)nn3)cc2)c(O)c1`
1.4

Fill in: MIC of `COc1cccc2cc(C(=O)NCc3cn(Cc4ccc(Oc5ccccc5)c(O)c4)nn3)c(=O)oc12` is ___
5

So what's the measured MIC for this one? `O=c1ccc2ccc(OCc3cn(Cc4ccc(Oc5ccccc5)c(O)c4)nn3)cc2o1`
2.2

Please give the measured MIC for this compound: `O=C(NCc1cn(Cc2ccc(Oc3ccccc3)c(O)c2)nn1)c1cc2ccccc2oc1=O`
4.7
